target: Bcl-2-like protein 10 (Homo sapiens); test: displacers of TR3 peptide from Bcl-B, primary screen, selectivity assay for Bfl-1 inhibitor project, biochemical, fluorescence polarization, FITC-TR3 peptide (AID 748); conditions: FP displacement of FITC-TR3 peptide from Bcl-B; at 20 µM; hits give high values;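 also: plate controls were wells without compound for no effect and wells lacking Bcl-B protein for full effect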
Out of some 96,000 compounds screened, about 100 (0.1%) were called active. Many of the other results were omitted from the sample, so actives are more common in it than they were. Measured potencies and affinities stand elsewhere.
Label scheme for displacement: lower than 4% is Not fulfilled, 4% and above is Fulfilled.

Known results for molecules:
Ask: Hello, I need to know if Cc1ccc(C(=O)NC2CCCc3ccccc32)o1 (stereo unspecified) has measured displacement not below 4%. Thanks!
Reply: Not fulfilled

Ask: Item O=C(O)Cn1nc2ccccc2n1 with displacement of 4% or above?
Reply: Not fulfilled

Ask: Form field: displacement at least 4%? Entry: Cc1ccc(NC(=O)CCc2ccc(S(=O)(=O)N3CCOCC3)cc2)c(C)c1
Reply: Fulfilled

Ask: Determine whether measured displacement meets or exceeds 4% for CCC(=O)c1cc(-c2nc3ccccc3n2C)n(C)c1
Reply: Not fulfilled

Ask: Evaluate CC1CCCN(C(=O)c2ccc3c(c2NCCO)C(=O)c2ccccc2C3=O)C1 (stereo unspecified) : displacement at minimum 4%?
Reply: Fulfilled

Next molecule, please.
Ask: Item CC1CCN(C(=O)c2ccc3c(c2NCCO)C(=O)c2ccccc2C3=O)CC1 with displacement of 4% or above?
Reply: Fulfilled

----------
target: Bcl-2-like protein 10 (Homo sapiens); assay: displacers of TR3 peptide from Bcl-B, primary screen, selectivity assay for Bfl-1 inhibitor project, biochemical, fluorescence polarization, FITC-TR3 peptide (AID 748); conditions: FP displacement of FITC-TR3 peptide from Bcl-B; at 20 µM; hits give high values;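 also: plate controls were wells without compound for no effect and wells lacking Bcl-B protein for full effect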
The whole screen tested about 96,000 compounds, of which about 100 (0.1%) were called active. Many of the other results were omitted from the sample, so actives are more common in it than they were. Results with a measured potency or affinity are listed apart.
The following compounds are shown together with reported displacement values.
Give the number; % is assumed, so skip it.

Sample records with displacement:
Ask: Sample COC(=O)c1cccc(NC(=O)COC(=O)CSc2nc(C)cc(C)n2)c1 — what was its displacement?
Reply: -13.3

Ask: So what's the measured displacement for this one? Cc1ccc(CSCCNC(=O)c2ccc(N(C)S(=O)(=O)c3ccccc3)cc2)cc1
Reply: 0

Ask: Which measured displacement value corresponds to CC1CCCN(c2oc(-c3cccc4ccccc34)nc2C#N)C1 (stereo unspecified) ?
Reply: 6.4

Ask: Name the reported displacement value associated with the compound COC(=O)c1cn(NC(=O)c2cccc(OC)c2)c(=O)c2ccccc12
Reply: 10.2

Ask: Give its displacement value. Item: O=C(C1CCCN(Cc2ccncc2)C1)N1CCc2ccccc2C1 (stereo unspecified)
Reply: -14.9

Proceed to the following item.
Ask: # displacement lookup, item CCN(CC)S(=O)(=O)c1cc(C(=O)Nc2ccc(Cl)cn2)ccc1C
Reply: -1.9

----------
In this section we review reported displacement values for a set of compounds.
biological target: Bcl-2-like protein 10 (Homo sapiens); assay: displacers of TR3 peptide from Bcl-B, primary screen, selectivity assay for Bfl-1 inhibitor project, biochemical, fluorescence polarization, FITC-TR3 peptide (AID 748); settings: FP displacement of FITC-TR3 peptide from Bcl-B; at 20 µM; hits give high values;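 also: plate controls were wells without compound for no effect and wells lacking Bcl-B protein for full effect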
Out of some 96,000 compounds screened, about 100 (0.1%) were called active. This is one part of a sample in which actives are shown more often than they occur. Measured potencies and affinities stand elsewhere.
Quick note: give the figure in %, leave out the unit.

Ask: Quick check: displacement of CC1Cc2nc(SCC(=O)NC3CCCCC3)n(C)c(=O)c2S1 (stereo unspecified) ?
Reply: -2.6

Turning now to a further record.
Ask: Entry O=C(COC(=O)c1ccccc1)NCc1ccco1 : reported displacement = ?
Reply: 40.9
